Each recorded value in this set is attributed to BigSolDB 2.1.

# Experimental parameters: in cyclopentanone, 272.65 K
Endpoint name: solubility (mole fraction)

>>> measured("Nc1ncccn1")
0.0605

====

# Experimental parameters: in n-propanol, 297.85 K
Endpoint name: solubility (mole fraction)

>>> measured("Nc1ncccn1")
0.0462

====

# Experimental parameters: in n-pentanol, 317.35 K
Endpoint name: solubility (mole fraction)

>>> measured("Nc1ncccn1")
0.0609

====

# Experimental parameters: in 2-butanone, 288.15 K
Endpoint name: solubility (mole fraction)

>>> measured("Nc1ncccn1")
0.0361

====

# Experimental parameters: in isopentanol, 307.25 K
Endpoint name: solubility (mole fraction)

>>> measured("Nc1ncccn1")
0.0458

====

# Experimental parameters: in ethyl acetate, 288.15 K
Endpoint name: solubility (mole fraction)

>>> measured("Nc1ncccn1")
0.0436

====

# Experimental parameters: in cyclopentanone, 288.15 K
Endpoint name: solubility (mole fraction)

>>> measured("Nc1ncccn1")
0.0918

====

# Experimental parameters: in n-butanol, 323.35 K
Endpoint name: solubility (mole fraction)

>>> measured("Nc1ncccn1")
0.123

====

# Experimental parameters: in acetone, 317.35 K
Endpoint name: solubility (mole fraction)

>>> measured("Nc1ncccn1")
0.0802

====

# Experimental parameters: in ethyl acetate, 317.35 K
Endpoint name: solubility (mole fraction)

>>> measured("Nc1ncccn1")
0.0867

====

# Experimental parameters: in ethyl acetate, 312.55 K
Endpoint name: solubility (mole fraction)

>>> measured("Nc1ncccn1")
0.0779

====

# Experimental parameters: in cyclopentanone, 317.35 K
Endpoint name: solubility (mole fraction)

>>> measured("Nc1ncccn1")
0.169

====

# Experimental parameters: in 2-pentanone, 312.55 K
Endpoint name: solubility (mole fraction)

>>> measured("Nc1ncccn1")
0.0603

====

# Experimental parameters: in n-butanol, 312.55 K
Endpoint name: solubility (mole fraction)

>>> measured("Nc1ncccn1")
0.0743

====

# Experimental parameters: in ethyl formate, 307.25 K
Endpoint name: solubility (mole fraction)

>>> measured("Nc1ncccn1")
0.106

====

# Experimental parameters: in 2-pentanone, 307.25 K
Endpoint name: solubility (mole fraction)

>>> measured("Nc1ncccn1")
0.0513

====

# Experimental parameters: in methyl acetate, 312.55 K
Endpoint name: solubility (mole fraction)

>>> measured("Nc1ncccn1")
0.0838

====

# Experimental parameters: in ethanol, 317.35 K
Endpoint name: solubility (mole fraction)

>>> measured("Nc1ncccn1")
0.0945

====

# Experimental parameters: in ethyl formate, 302.65 K
Endpoint name: solubility (mole fraction)

>>> measured("Nc1ncccn1")
0.0928

====

# Experimental parameters: in isobutanol, 317.35 K
Endpoint name: solubility (mole fraction)

>>> measured("Nc1ncccn1")
0.0828

====

# Experimental parameters: in acetonitrile, 293.15 K
Endpoint name: solubility (mole fraction)

>>> measured("Nc1ncccn1")
0.0203

====

# Experimental parameters: in acetonitrile, 288.15 K
Endpoint name: solubility (mole fraction)

>>> measured("Nc1ncccn1")
0.0176

====

# Experimental parameters: in 2-pentanone, 278.25 K
Endpoint name: solubility (mole fraction)

>>> measured("Nc1ncccn1")
0.0192

====

# Experimental parameters: in n-butanol, 278.25 K
Endpoint name: solubility (mole fraction)

>>> measured("Nc1ncccn1")
0.0114

====

# Experimental parameters: in n-pentanol, 312.55 K
Endpoint name: solubility (mole fraction)

>>> measured("Nc1ncccn1")
0.0521

====

# Experimental parameters: in acetone, 302.65 K
Endpoint name: solubility (mole fraction)

>>> measured("Nc1ncccn1")
0.0545

====

# Experimental parameters: in cyclohexanone, 278.25 K
Endpoint name: solubility (mole fraction)

>>> measured("Nc1ncccn1")
0.0457

====

# Experimental parameters: in isopropanol, 317.35 K
Endpoint name: solubility (mole fraction)

>>> measured("Nc1ncccn1")
0.0918

====

# Experimental parameters: in cyclopentanone, 302.65 K
Endpoint name: solubility (mole fraction)

>>> measured("Nc1ncccn1")
0.128

====

# Experimental parameters: in isobutanol, 302.65 K
Endpoint name: solubility (mole fraction)

>>> measured("Nc1ncccn1")
0.0423

====

# Experimental parameters: in cyclohexanone, 323.35 K
Endpoint name: solubility (mole fraction)

>>> measured("Nc1ncccn1")
0.164

====

# Experimental parameters: in cyclohexanone, 302.65 K
Endpoint name: solubility (mole fraction)

>>> measured("Nc1ncccn1")
0.0952

====

# Experimental parameters: in ethanol, 297.85 K
Endpoint name: solubility (mole fraction)

>>> measured("Nc1ncccn1")
0.0384

====

# Experimental parameters: in acetonitrile, 297.85 K
Endpoint name: solubility (mole fraction)

>>> measured("Nc1ncccn1")
0.0251

====

# Experimental parameters: in isobutanol, 323.35 K
Endpoint name: solubility (mole fraction)

>>> measured("Nc1ncccn1")
0.107

====

# Experimental parameters: in cyclohexanone, 288.15 K
Endpoint name: solubility (mole fraction)

>>> measured("Nc1ncccn1")
0.0618

====

# Experimental parameters: in acetone, 283.55 K
Endpoint name: solubility (mole fraction)

>>> measured("Nc1ncccn1")
0.0311

====

# Experimental parameters: in isopropanol, 283.55 K
Endpoint name: solubility (mole fraction)

>>> measured("Nc1ncccn1")
0.0139

====

# Experimental parameters: in n-pentanol, 283.55 K
Endpoint name: solubility (mole fraction)

>>> measured("Nc1ncccn1")
0.0182

====

# Experimental parameters: in n-pentanol, 272.65 K
Endpoint name: solubility (mole fraction)

>>> measured("Nc1ncccn1")
0.0117

====

# Experimental parameters: in ethyl formate, 272.65 K
Endpoint name: solubility (mole fraction)

>>> measured("Nc1ncccn1")
0.0286

====

# Experimental parameters: in acetonitrile, 272.65 K
Endpoint name: solubility (mole fraction)

>>> measured("Nc1ncccn1")
0.0108

====

# Experimental parameters: in acetonitrile, 312.55 K
Endpoint name: solubility (mole fraction)

>>> measured("Nc1ncccn1")
0.0449

====

# Experimental parameters: in methanol, 293.15 K
Endpoint name: solubility (mole fraction)

>>> measured("Nc1ncccn1")
0.0554

====

# Experimental parameters: in isobutanol, 288.15 K
Endpoint name: solubility (mole fraction)

>>> measured("Nc1ncccn1")
0.02

====

# Experimental parameters: in ethyl formate, 283.55 K
Endpoint name: solubility (mole fraction)

>>> measured("Nc1ncccn1")
0.0471

====

# Experimental parameters: in ethyl formate, 312.55 K
Endpoint name: solubility (mole fraction)

>>> measured("Nc1ncccn1")
0.125

====

# Experimental parameters: in ethanol, 307.25 K
Endpoint name: solubility (mole fraction)

>>> measured("Nc1ncccn1")
0.06

====

# Experimental parameters: in ethyl acetate, 307.25 K
Endpoint name: solubility (mole fraction)

>>> measured("Nc1ncccn1")
0.0678
